target_system: Tyr from mushrooms (Agaricus bisporus, UniProt C7FF04)
Sequence (G1K3P4 entry or part of it): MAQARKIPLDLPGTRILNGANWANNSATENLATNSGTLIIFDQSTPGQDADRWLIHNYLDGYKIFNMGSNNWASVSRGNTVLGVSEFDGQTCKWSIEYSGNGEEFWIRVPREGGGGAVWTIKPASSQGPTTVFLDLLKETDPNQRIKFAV
Sequence (C7FF04 1-392): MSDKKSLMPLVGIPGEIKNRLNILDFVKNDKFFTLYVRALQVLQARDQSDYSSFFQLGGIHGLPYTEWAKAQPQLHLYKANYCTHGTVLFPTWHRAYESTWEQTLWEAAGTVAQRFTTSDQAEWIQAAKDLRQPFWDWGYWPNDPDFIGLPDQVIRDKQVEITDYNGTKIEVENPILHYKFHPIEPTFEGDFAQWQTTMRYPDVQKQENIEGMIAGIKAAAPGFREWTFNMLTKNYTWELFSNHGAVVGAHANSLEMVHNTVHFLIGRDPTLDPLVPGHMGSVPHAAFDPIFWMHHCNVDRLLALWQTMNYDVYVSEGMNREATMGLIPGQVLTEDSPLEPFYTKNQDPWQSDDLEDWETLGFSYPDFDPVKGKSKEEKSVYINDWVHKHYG
test_protocol: Kinetic analysis of the inhibition of tyrosinase (Lineweaver-Burk, Dixon, [L-tyrosine]/V vs [I] plots)
Type: biochemical, mushroom
test_parameters: plots of [L-tyrosine]/V vs [I]
Listed compounds paired with reported IC50
# number only, unit µM dropped from output

- smiles_input: "Cc1nc[nH]c1C(=O)NNC(=S)Nc1cccc(I)c1"
  IC50 / µM: 37.4

Switching to the query record.
Lab book: IC50 of Cc1nc[nH]c1C(=O)NNC(=S)Nc1ccc([N+](=O)[O-])cc1 noted as 38.3

---

Listed compounds paired with reported CC30
Tested on: Hs27 cell line
test_protocol: Cytotoxicity assay (MTT) on human fibroblast Hs27 cells
Assay type: cell-based
test_parameters: Hs27 cell line, MTT

Lab book: CC30 of O=c1cc(CO)occ1O [Kojic acid (KA), Kojic acid, reference compound] noted as > 2.5 mM

Lab book: CC30 of O=C(NNC(=S)Nc1ccccc1Br)C1CCCC1 noted as > 1 mM

Lab book: CC30 of COc1ccccc1NC(=S)NNC(=O)C1CCCC1 noted as > 1 mM

Lab book: CC30 of O=C(NNC(=S)Nc1cc(F)ccc1F)C1CCCC1 noted as > 1 mM
